- Method: Cmax in BALB/c mouse at 1 mg/kg, iv by LC-MS analysis
- Assay type: ADME, organism-based
- Parameters: dose 1 mg/kg, route intravenous
- Run Parameters: in vivo
Reported Metric: Cmax

Sample Nc1nc2ccc(C(=O)NCc3ccccc3)cc2s1 — what was its Cmax? 1630 ng/mL

----------
- Method: Thermodynamic solubility of the compound in phosphate buffered saline/50%DMSO after 24 hrs by spectrophotometric method
- Assay type: physicochemical
- Run Parameters: read-out: Therm_solubility
Reported Metric: solubility thermodynamic at 24 h

Sample Nc1nc2ccc(C(=O)NCc3ccccc3)cc2s1 — what was its solubility thermodynamic at 24 h? > 100 µg/mL

----------
- Method: Thermodynamic solubility of the compound in pure water after 24 hrs by spectrophotometric method
- Assay type: physicochemical
- Run Parameters: read-out: Therm_solubility
Reported Metric: solubility thermodynamic at 24 h (µg/mL)
Field: numeric (µg/mL). Do not append units.

Sample Nc1nc2ccc(C(=O)NCc3ccccc3)cc2s1 — what was its solubility thermodynamic at 24 h? 13.1

----------
The following molecules are shown together with reported Ratio values.
- Tested on: Trypanosoma brucei
- Method: Inhibition of PTR1 in Trypanosoma brucei bloodstream forms assessed as potentiation of methotrexate-induced parasitic cell growth inhibition by measuring potentiation index at 10 uM measured after 72 hrs by resazurin-based fluorescence assay relative to control (methotrexate)
- Type: functional
Please give the numeric answer without any surrounding text.

// known answers, use as guide
Cpd Smiles: COC(=O)c1ccc(CSc2ccc3nc(N)sc3c2)cc1
System Tested: Trypanosoma brucei
Readout Value: 2.7
--
Cpd Smiles: Nc1nc2ccc(SC(F)(F)F)cc2s1
System Tested: Trypanosoma brucei
Readout Value: 1.1
--
Cpd Smiles: Nc1nc2ccc(SCc3ccc(Cl)c(Cl)c3)cc2s1
System Tested: Trypanosoma brucei
Readout Value: 1.1
--
Cpd Smiles: Nc1nc2ccc(SCc3ccc(C(=O)NCc4ccccc4)cc3)cc2s1
System Tested: Trypanosoma brucei
Readout Value: 1.6
--
Cpd Smiles: COC(=O)C1CCN(C(=O)c2ccc(CSc3ccc4nc(N)sc4c3)cc2)CC1
System Tested: Trypanosoma brucei
Readout Value: 1.3
--
Cpd Smiles: N#Cc1ccc(CS(=O)(=O)c2ccc3nc(N)sc3c2)cc1
System Tested: Trypanosoma brucei
Readout Value: 1.5

Hello, I am looking for reported Ratio with Trypanosoma brucei for Nc1nc2ccc(OCc3ccc(Cl)c(Cl)c3)cc2s1 . Could you help? 1.2

----------
- Tested on: Trypanosoma brucei
- Method: Growth inhibition of Trypanosoma brucei bloodstream forms at 10 uM measured after 72 hrs by resazurin-based fluorescence assay relative to control
- Type: organism-based
- Run Parameters: Trypanosoma brucei, read-out: GI
The following compounds are shown together with reported inhibition at 10 µM values.
Field: numeric (%). Do not append units.

// known answers, use as guide
Cpd Smiles: Nc1nc2ccc(C(=O)NCCc3cccs3)cc2s1
System Tested: Trypanosoma brucei
Unit Label: %
Readout Value: 17
--
Cpd Smiles: COC(=O)c1ccc(COc2ccc3nc(N)sc3c2)cc1
System Tested: Trypanosoma brucei
Unit Label: %
Readout Value: 22
--
Cpd Smiles: COC(=O)c1ccc(CNC(=O)c2ccc3nc(N)sc3c2)cc1
System Tested: Trypanosoma brucei
Unit Label: %
Readout Value: 16
--
Cpd Smiles: Nc1nc2ccc(C(=O)NCc3ccccc3[N+](=O)[O-])cc2s1
System Tested: Trypanosoma brucei
Unit Label: %
Readout Value: 18
--
Cpd Smiles: Nc1nc2ccc(OCc3ccccc3)cc2s1
System Tested: Trypanosoma brucei
Unit Label: %
Readout Value: 28
--
Cpd Smiles: Nc1nc2ccc(SC(F)(F)F)cc2s1
System Tested: Trypanosoma brucei
Unit Label: %
Readout Value: 11

Sample Nc1nc2c(C(=O)N(Cc3ccccc3)Cc3ccc(Cl)c(Cl)c3)cc(O)c(O)c2s1 — what was its inhibition at 10 µM? 25
